- assay_name: amyloid nucleation score (Sup35N fusion, yeast selection) (log enrichment); library NNK1; higher = more nucleation; inactive = no reads after selection;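 also: zero at mode of non-aggregating sequences after 7 days selection at 30°C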
// Not satisfied strictly below -0.04 in amyloid nucleation score; Satisfied otherwise

Check if amyloid nucleation score >= -0.04 (inclusive). Item: ADNFIGVVYTMLVRRYMPNS
Not satisfied

Check if amyloid nucleation score >= -0.04 (inclusive). Item: TRVGLVPSLGDRSDNYIVRI
Satisfied

Check if amyloid nucleation score >= -0.04 (inclusive). Item: KTHQLTSRTEWLYGVGVSAQ
Not satisfied

Check if amyloid nucleation score >= -0.04 (inclusive). Item: CALLRCMLGSYSQYVARVGE
Satisfied

Check if amyloid nucleation score >= -0.04 (inclusive). Item: YQCYSFRVNFGGCWLAQHLL
Satisfied

Check if amyloid nucleation score >= -0.04 (inclusive). Item: FCAEEGVTRLNPKL
Satisfied

Check if amyloid nucleation score >= -0.04 (inclusive). Item: QTHEYGLPRMIR
Satisfied

Check if amyloid nucleation score >= -0.04 (inclusive). Item: TPFVMIKDGKADFVILNVYH
Satisfied

---
Check if amyloid nucleation score >= -0.04 (inclusive). Item: QLLAVMWKGHHVYRELCGRL
Not satisfied

Check if amyloid nucleation score >= -0.04 (inclusive). Item: IRISVAVHVIVMNYMYPYLI
Not satisfied

Check if amyloid nucleation score >= -0.04 (inclusive). Item: MMVFKVSFKVIKVT
Not satisfied

Check if amyloid nucleation score >= -0.04 (inclusive). Item: ELKSPCNVSPIWSRSRQTST
Satisfied

Check if amyloid nucleation score >= -0.04 (inclusive). Item: GWYFPILRDLRNVGGVF
Not satisfied

Check if amyloid nucleation score >= -0.04 (inclusive). Item: LCNFDSGFGNYGLL
Not satisfied

Check if amyloid nucleation score >= -0.04 (inclusive). Item: NSCWVEKSNTV
Satisfied

Check if amyloid nucleation score >= -0.04 (inclusive). Item: GSIERFTFISVYYRLTPLSG
Satisfied

Check if amyloid nucleation score >= -0.04 (inclusive). Item: AGDTMAVWLPHQKRGGCFEM
Not satisfied

Check if amyloid nucleation score >= -0.04 (inclusive). Item: DLLLRSSTSTVVCIMNRTTS
Satisfied

Check if amyloid nucleation score >= -0.04 (inclusive). Item: RVCMLLYCQVKVGTVN
Satisfied

Check if amyloid nucleation score >= -0.04 (inclusive). Item: NATNLENQKFTEDALKSPGW
Satisfied

Check if amyloid nucleation score >= -0.04 (inclusive). Item: VDNNARDTSVGSALENMWVL
Satisfied

Check if amyloid nucleation score >= -0.04 (inclusive). Item: RFLRAPGLCSVCSCE
Not satisfied

Check if amyloid nucleation score >= -0.04 (inclusive). Item: GFVGFTGF
Satisfied

Check if amyloid nucleation score >= -0.04 (inclusive). Item: SKCLMNS
Not satisfied

Check if amyloid nucleation score >= -0.04 (inclusive). Item: RLWNSRWFPGNLNCWVKLEW
Satisfied

Check if amyloid nucleation score >= -0.04 (inclusive). Item: RLRFLNYTDAG
Not satisfied

Check if amyloid nucleation score >= -0.04 (inclusive). Item: WRVHSNKRKLGSCLLTGTIF
Satisfied

Check if amyloid nucleation score >= -0.04 (inclusive). Item: PCSQPFT
Not satisfied

Check if amyloid nucleation score >= -0.04 (inclusive). Item: HFCFGC
Satisfied
